# testedOn: human B1 (Homo sapiens, UniProt P46663)
# protocolNotes: Calcium flux assay for Bradykinin B1 antagonist, CHO-K1 cell line expressing human B1
# testParameters: CHO-K1 cells expressing human B1, agonist Lys-(Des-Arg)-Bradykinin, read-out: Potency (IC50 value against human B1)
pIC50: −log10 of the molar value.
Answer each item with its documented pIC50.

compound	pIC50
COc1cc(C)c(S(=O)(=O)N(C)Cc2nc(C(=O)N(C)Cc3ccc(CN4CCC(OC)CC4)cc3)co2)c(C)c1	> 8.00
COc1cc(C)c(S(=O)(=O)N(Cc2cc(C(=O)NCc3ccc(CN4CCCC4)cc3)co2)C2CC2)c(C)c1	7.00 to 8.00
COc1cc(C)c(S(=O)(=O)N(Cc2cc(C(=O)N(C)Cc3ccc(CN4CCC(O)C4)cc3)co2)C2CC2)c(C)c1 (stereo not shown)	7.00 to 8.00

The record that follows has no pIC50 shown yet.
# pIC50 of COc1cc(C)c(S(=O)(=O)N(C)Cc2cc(C(=O)N(C)Cc3ccc(CN4CCCC(OC)C4)cc3)co2)c(C)c1 (stereo not shown) = 6.00 to 7.00

----------
# testedOn: human B1 (Homo sapiens, UniProt P46663)
# Sequence (P46663 1-353): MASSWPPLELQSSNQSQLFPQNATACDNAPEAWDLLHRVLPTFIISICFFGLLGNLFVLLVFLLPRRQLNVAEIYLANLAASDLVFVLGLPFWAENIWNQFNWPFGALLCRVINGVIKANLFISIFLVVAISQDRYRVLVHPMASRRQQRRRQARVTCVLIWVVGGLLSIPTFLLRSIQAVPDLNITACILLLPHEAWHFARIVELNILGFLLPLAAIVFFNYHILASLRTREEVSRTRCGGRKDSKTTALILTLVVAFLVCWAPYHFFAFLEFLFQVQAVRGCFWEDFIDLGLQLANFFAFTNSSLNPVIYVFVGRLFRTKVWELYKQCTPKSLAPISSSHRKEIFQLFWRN
# protocolNotes: Calcium flux assay for Bradykinin B1 antagonist, CHO-K1 cell line expressing human B1
# testParameters: CHO-K1 cells expressing human B1, agonist Lys-(Des-Arg)-Bradykinin, read-out: Potency (IC50 value against human B1)
pIC50: −log10 of the molar value. Structures can show the parent of a compound that is named as a salt.
measurementKind: pIC50

Example entries begin here.
compound	reportedResult
COc1cc(C)c(S(=O)(=O)N(C)Cc2cc(C(=O)NCCc3ccc(CNCC(C)C)cc3)co2)c(C)c1 [Ex 42]	6.00 to 7.00
Cc1cccc(Cl)c1S(=O)(=O)N(Cc1nc(C(=O)N(C)CCc2ccc(C3=NCCN3)cc2)co1)C1CC1 [Ex 219, trifluoroacetate]	7.00 to 8.00

Would you mind listing pIC50 for each of the following compounds?
1. COc1cc(C)c(S(=O)(=O)N(Cc2nc(C(=O)N(C)CCOc3ccncc3)co2)C2CC2)c(C)c1 [Ex 257]
2. CCN(Cc1cc(C(=O)NCCc2ccc(C3=NCCN3)cc2)co1)S(=O)(=O)c1c(C)cc(OC)cc1C [Ex 104, trifluoroacetate]
3. COc1cc(C)c(S(=O)(=O)N(C)Cc2nc(C(=O)N3CCN(CCN4CCCC4)CC3)co2)c(C)c1 [Ex 164]
4. COc1cc(C)c(S(=O)(=O)N(C)Cc2cc(C(=O)NCCc3ccc(C4=NC(C)CN4)cc3)co2)c(C)c1 (centres unmarked) [Ex 7]
5. COc1cc(C)c(S(=O)(=O)N(Cc2nc(C(=O)N(C)Cc3ccc4c(c3)CN(C)C4)co2)C2CC2)c(C)c1 [Ex 225, trifluoroacetate]
6. COc1cc(C)c(S(=O)(=O)N(Cc2nc(C(=O)N(C)C3CCC(N4CCN(C)CC4)CC3)co2)C2CC2)c(C)c1 (centres unmarked) [Ex 243, trifluoroacetate]
7. COc1cc(C)c(S(=O)(=O)N(Cc2nc(C(=O)N3CCN(Cc4ccnc(C)c4)CC3)co2)C2CC2)c(C)c1 [Ex 252]
8. COc1cc(C)c(S(=O)(=O)N(Cc2nnc(C(=O)N3CCC(CCN4CCCC4)CC3)s2)C2CC2)c(C)c1 [Ex 337]

-- reply
6.00 to 7.00
7.00 to 8.00
6.00 to 7.00
> 8.00
7.00 to 8.00
7.00 to 8.00
> 8.00
> 8.00

----------
# testedOn: human B1 (Homo sapiens, UniProt P46663)
# Sequence (P46663 1-353): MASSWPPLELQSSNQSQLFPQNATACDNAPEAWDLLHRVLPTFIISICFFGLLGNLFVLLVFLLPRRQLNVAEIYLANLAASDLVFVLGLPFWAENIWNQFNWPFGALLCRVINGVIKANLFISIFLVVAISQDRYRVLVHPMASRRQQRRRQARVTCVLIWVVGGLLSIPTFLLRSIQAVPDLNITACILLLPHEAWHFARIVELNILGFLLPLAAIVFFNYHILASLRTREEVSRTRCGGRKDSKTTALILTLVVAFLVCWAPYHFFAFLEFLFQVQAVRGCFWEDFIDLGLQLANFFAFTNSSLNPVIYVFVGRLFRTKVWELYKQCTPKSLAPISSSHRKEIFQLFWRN
# protocolNotes: Calcium flux assay for Bradykinin B1 antagonist, CHO-K1 cell line expressing human B1
# testParameters: CHO-K1 cells expressing human B1, agonist Lys-(Des-Arg)-Bradykinin, read-out: Potency (IC50 value against human B1)
Counter-ions that a name gives are not always drawn.
measurementKind: IC50

Example entries begin here.
compound	IC50
COc1cc(C)c(S(=O)(=O)N(C)Cc2nnc(C(=O)N3CCN(C4CCN(C)CC4)CC3)s2)c(C)c1 [Ex 332]	100 to 1000 nM
COc1cc(C)c(S(=O)(=O)N(C)Cc2noc(C(=O)N3CCN(CCN4CCCC4)CC3)n2)c(C)c1 [Ex 308]	100 to 1000 nM
COc1cc(C)c(S(=O)(=O)N(Cc2nc(C(=O)N3CC4CCN(Cc5ccc(OC)nc5)CC4C3)co2)C2CC2)c(C)c1 (stereo not shown) [Ex 210, trifluoroacetate]	10 to 100 nM
CN(CCc1ccc(C2=NCCN2)cc1)C(=O)c1coc(CN(C2CC2)S(=O)(=O)c2ccc(Cl)cc2Cl)n1 [Ex 214, trifluoroacetate]	100 to 1000 nM

Would you mind listing IC50 for each of the following compounds?
1. COc1cc(C)c(S(=O)(=O)N(Cc2cc(C(=O)N3CCN(CC4CCN(C)CC4)CC3)co2)C2CC2)c(C)c1 [Ex 105, trifluoroacetate]
2. Cc1cccc(Cl)c1S(=O)(=O)N(Cc1nc(C(=O)N(C)Cc2ccc(CN3CCCC3)cc2)co1)C1CC1 [Ex 220, trifluoroacetate]
3. COc1cc(C)c(S(=O)(=O)N(Cc2nnc(C(=O)N3CCN(CC4CCN(C)CC4)CC3)o2)C2CC2)c(C)c1 [Ex 272]

-- reply
["10 to 100 nM", "100 to 1000 nM", "< 10 nM"]

----------
Answer each item with its documented IC50.
# testedOn: human B1 (Homo sapiens)
# Sequence (P46663 1-353): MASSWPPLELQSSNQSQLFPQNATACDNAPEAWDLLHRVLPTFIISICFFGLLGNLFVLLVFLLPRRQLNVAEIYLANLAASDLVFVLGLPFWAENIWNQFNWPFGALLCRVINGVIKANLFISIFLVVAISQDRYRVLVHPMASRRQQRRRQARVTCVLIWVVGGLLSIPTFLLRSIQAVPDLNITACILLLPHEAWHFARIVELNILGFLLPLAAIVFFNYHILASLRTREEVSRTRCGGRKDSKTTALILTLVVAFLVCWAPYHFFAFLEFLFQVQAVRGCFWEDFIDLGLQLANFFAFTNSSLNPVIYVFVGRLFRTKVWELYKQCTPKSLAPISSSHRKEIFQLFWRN
# protocolNotes: Calcium flux assay for Bradykinin B1 antagonist, CHO-K1 cell line expressing human B1
# testParameters: CHO-K1 cells expressing human B1, agonist Lys-(Des-Arg)-Bradykinin, read-out: Potency (IC50 value against human B1)
Counter-ions that a name gives are not always drawn.

Example entries begin here.
compound	reportedResult
COc1cc(C)c(S(=O)(=O)N(Cc2cc(C(=O)N(C)Cc3ccc(CN4CCCC4)cc3)co2)C2CC2)c(C)c1	10 to 100 nM
COc1cc(C)c(S(=O)(=O)N(C)Cc2nnc(C(=O)N(C)Cc3nc(CN4CCCC4)cs3)o2)c(C)c1	100 to 1000 nM

Would you mind listing IC50 for each of the following compounds?
1. COc1cc(C)c(S(=O)(=O)N(Cc2nc(C(=O)N3CCN(Cc4ccncc4)CC3)co2)C2CC2)c(C)c1 [Ex 162, trifluoroacetate]
2. COc1cc(C)c(S(=O)(=O)N(C)Cc2noc(C(=O)N3CCN(CCCN4CCCC4)CC3)n2)c(C)c1

-- reply
< 10 nM
100 to 1000 nM

----------
# testedOn: human B1 (Homo sapiens, UniProt P46663)
# protocolNotes: Calcium flux assay for Bradykinin B1 antagonist, CHO-K1 cell line expressing human B1
# testParameters: CHO-K1 cells expressing human B1, agonist Lys-(Des-Arg)-Bradykinin, read-out: Potency (IC50 value against human B1)
Counter-ions that a name gives are not always drawn.
Answer each item with its documented IC50.

Example entries begin here.
compound	IC50
O=C(c1coc(CN(C2CC2)S(=O)(=O)c2c(Cl)cc(Br)cc2Cl)c1)N1CCCC(c2ccc(CN3CCCC3)cc2)C1 (stereo not drawn) [Ex 125, trifluoroacetate]	100 to 1000 nM
COc1cc(C)c(S(=O)(=O)N(Cc2nc(C(=O)N3CCN(c4ccncc4)CC3)co2)C2CC2)c(C)c1 [Ex 161, trifluoroacetate]	100 to 1000 nM
COc1cc(C)c(S(=O)(=O)N(Cc2noc(C(=O)N(C)Cc3ccc(CN4CCCC4)cc3)n2)C2CC2)c(C)c1 [Ex 306, trifluoroacetate]	< 10 nM
COc1cc(C)c(S(=O)(=O)N(C)Cc2nc(C(=O)N(C)Cc3ccc(CN4CCCC(OC)C4)cc3)co2)c(C)c1 (stereo not drawn) [Ex 168]	10 to 100 nM
COc1cc(C)c(S(=O)(=O)N(C)Cc2nc(C(=O)N3CCN(CCCCN(C)C)CC3)no2)c(C)c1 [Ex 322, trifluoroacetate]	100 to 1000 nM

The record that follows has no IC50 shown yet.
# IC50 of COc1cc(C)c(S(=O)(=O)N(C)Cc2cc(C(=O)N(C)Cc3cccc(CN4CCCC4)c3)co2)c(C)c1 [Ex 8] = 10 to 100 nM
